Here, each record is paired with measured T/C data.
tested on: P388 leukemia ip, CD2F1 mice, survival T/C; assay: NCI In Vivo Anticancer Drug Screen. Data for tumor model P388 Leukemia (intraperitoneal) in CD2F1 (CDF1) mice; conditions: endpoint: median survival time; dose: 240.0 mg/kg/injection; schedule: Q01DX005 (ip); vehicle: Klucel (hydroxypropylcellulose) (HPC); higher = longer survival
Toxic doses and inconclusive results are not listed.
property measured: T/C

compound=Cc1nn(-c2ccccc2)c(=O)n2c1nc1ccccc12 assay_value="91 % of control"
compound="CC(C)(C)N1COC2CCCCC21 (centres undefined)" assay_value="106 % of control"
compound="COc1cc2c3c(c1OC)-c1[nH]c4ccccc4c1C1CCCN(CC2)C31 (centres undefined)" assay_value="98 % of control"
compound="COC(=O)NN(C(=O)OC)C1CCC2C1c1ccccc1N(C(=O)OC)N2C(=O)OC (centres undefined)" assay_value="103 % of control"
compound=S=C(N/N=C/c1ccncc1)Nc1ccccc1 assay_value="91 % of control"
compound=CCOc1c(N=Nc2ccc(Br)cc2)c(C)nn1C(=S)SC assay_value="98 % of control"
compound="CCOC(=O)c1ccc(NC(=O)N2CCCCC2C)cc1 (centres undefined)" assay_value="97 % of control"
compound="CC1C=CC(C)S(=O)N1C(=O)Cc1ccccc1 (centres undefined)" assay_value="113 % of control"
compound="Cc1ccc2c(c1)C(O)(CC(=O)c1ccccn1)C(=O)N2 (centres undefined)" assay_value="104 % of control"
compound="COC1(OC)C(c2ccccc2)C(C#N)(S(=O)(=O)c2ccccc2)C1(OC)OC (centres undefined)" assay_value="100 % of control"
compound=CCO/C=C1\N=C(C(O)(c2ccc(Cl)cc2)c2ccc(Cl)cc2)OC1=O assay_value="98 % of control"
compound="COc1ccc(C2OC(=N)C(=S)N2C)c(OC)c1 (centres undefined)" assay_value="101 % of control"
compound=CCn1ncc2c1nc(-c1ccccc1)c[n+]2[O-] assay_value="101 % of control"
compound=COC(=O)c1ccc(O)cc1C1(Cl)CC1 assay_value="100 % of control"
